Details: 308.15 K; Liquid; Gas chromatography
measure: vapor or sublimation pressure (kPa)

compound	measure	test-result
C[C@@H](Cc1ccccc1)N(C)Cc1ccccc1 [(S)-N-benzyl-N-methyl-1-phenylpropan-2-amine]	vapor or sublimation pressure	0.000111
CCCCN(CCCC)CCCC [tributylamine]	vapor or sublimation pressure	0.06
CCCCCCCCN(CCCCCCCC)CCCCCCCC [trioctylamine]	vapor or sublimation pressure	5.3e-07
CCCN(CCC)CCC [tripropylamine]	vapor or sublimation pressure	0.949
c1ccc(CN(Cc2ccccc2)Cc2ccccc2)cc1 [benzenemethanamine, N,N-bis(phenylmethyl)-]	vapor or sublimation pressure	1.7e-06
CCCCCCCCCCCCCCN(C)C [1-tetradecanamine, N,N-dimethyl-]	vapor or sublimation pressure	0.000253
CC(C)CN(CC(C)C)CC(C)C [triisobutylamine]	vapor or sublimation pressure	0.222
CCN(CCCc1ccccc1)CCCc1ccccc1 [N-ethyl-3-phenyl-N-(3-phenylpropyl)propan-1-amine]	vapor or sublimation pressure	4.5e-06
C#CCN(C)[C@H](C)Cc1ccccc1 [(R)-N-methyl-N-(1-phenylpropan-2-yl)prop-2-yn-1-amine]	vapor or sublimation pressure	0.0058
CCCCCCCCCCCCCCCCN(C)C [1-hexadecanamine, N,N-dimethyl-]	vapor or sublimation pressure	3.2e-05
